Test system: A2058
procedure_text: cells
Type: functional, cell-based
test_settings: Homo sapiens
Description: SANGER: Inhibition of human A2058 cell growth in a cell viability assay.
Provide the reported IC50 of each item.

Entry NC(=O)Nc1cc(-c2cccc(F)c2)sc1C(=O)N[C@H]1CCCNC1 , system A2058: what IC50 was measured?;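 further: reduction of A2058 cell growth, read out with a viability assay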
451 nM

Next record, please: CN(C)CCOc1ccc(-c2nc(-c3ccncc3)c(-c3ccc4c(c3)CC/C4=N\O)[nH]2)cc1
> 5000 nM

====

Provide the reported pIC50 of each item.
Tested on: SK-MEL-2;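 further: growth inhibition of human SK-MEL-2 cells measured with a cell viability assay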
procedure_text: cells
Type: functional, cell-based, Homo sapiens
test_settings: Homo sapiens, SK-MEL-2
Description: SANGER: Inhibition of human SK-MEL-2 cell growth in a cell viability assay.
pIC50: −log10 of the molar value.

Name the reported pIC50 value associated with the molecule CN(NC(=O)CC(=O)NN(C)C(=S)c1ccccc1)C(=S)c1ccccc1 [ELESCLOMOL]
7.14

Next record, please: OC[C@H](Cc1ccccc1)Nc1nc(Oc2ccc3c(c2)CCC3)nc2c1ncn2Cc1ccc(-c2ccccc2)cc1
< 4.99

Next record, please: Nc1ccccc1NC(=O)c1ccc(CNC(=O)OCc2cccnc2)cc1 [ENTINOSTAT]
< 5.30

Next record, please: Cc1ccc(NC(=O)c2ccc(CN3CCN(C)CC3)cc2)cc1Nc1nccc(-c2cccnc2)n1 [IMATINIB]
< 5.70

Next record, please: C[C@@H](Oc1cc(-c2cnn(C3CCNCC3)c2)cnc1N)c1c(Cl)ccc(F)c1Cl [CRIZOTINIB]
< 5.70

Next record, please: NC(=O)c1ccc(N(C(N)=O)c2c(F)cccc2F)nc1-c1ccc(F)cc1F [VX-702]
< 5.70

====

Test system: DB
procedure_text: cells
Assay type: functional, cell-based, Homo sapiens
test_settings: Homo sapiens, DB
Description: SANGER: Inhibition of human DB cell growth in a cell viability assay.
pIC50: −log10 of the molar value.
measured_attribute: pIC50

Name the reported pIC50 value associated with the molecule CN(NC(=O)CC(=O)NN(C)C(=S)c1ccccc1)C(=S)c1ccccc1
6.85

Next record, please: O=S(=O)(O)c1ccc2cc(/N=N/c3cc(S(=O)(=O)O)c4cccnc4c3O)ccc2c1
< 4.80

Next record, please: NC1(c2ccc(-c3nc4ccn5c(=O)[nH]nc5c4cc3-c3ccccc3)cc2)CCC1
< 5.40

Next record, please: CS(=O)(=O)N1CCN(Cc2cc3nc(-c4cccc5[nH]ncc45)nc(N4CCOCC4)c3s2)CC1
< 5.40

Next record, please: NC(=O)c1cccc(-c2cc(Nc3ccc(OC(F)(F)F)cc3)ncn2)c1
< 5.89

Next record, please: Cc1ccc(C(=O)Nc2ccc(CN3CCN(C)CC3)c(C(F)(F)F)c2)cc1C#Cc1cnc2cccnn12
< 6.29

Next record, please: O=C1NC(=O)c2c1c(-c1ccccc1Cl)cc1[nH]c3ccc(O)cc3c21
5.89

Next record, please: Cc1ccc(-n2nc(C(C)(C)C)cc2NC(=O)Nc2ccc(OCCN3CCOCC3)c3ccccc23)cc1
< 5.00

Next record, please: C[C@@H](Oc1cc(-c2cnn(C3CCNCC3)c2)cnc1N)c1c(Cl)ccc(F)c1Cl
< 5.70

Next record, please: O=C(NCCCNc1nc(Nc2cccc(NC(=O)N3CCCC3)c2)ncc1I)c1cccs1
5.67

====

Tested on: NB12;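 further: growth inhibition of human NB12 cells, read out by a cell viability assay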
procedure_text: cells
Type: functional, cell-based
test_settings: Homo sapiens
Description: SANGER: Inhibition of human NB12 cell growth in a cell viability assay.
measured_attribute: IC50 (µM)
Provide only the numeric value, understood in µM.

Name the reported IC50 value associated with the compound CC1(C)CCC(c2ccc(Cl)cc2)=C(CN2CCN(c3ccc(C(=O)NS(=O)(=O)c4ccc(N[C@H](CCN5CCOCC5)CSc5ccccc5)c(S(=O)(=O)C(F)(F)F)c4)cc3)CC2)C1
0.231

Next record, please: CCCCCCCCCCCC1=C(O)C(=O)C=C(O)C1=O
8.23

====

Provide the reported IC50 of each item.
System: D-336MG
procedure_text: cells
Format: functional, cell-based, Homo sapiens
test_settings: Homo sapiens, D-336MG
Description: SANGER: Inhibition of human D-336MG cell growth in a cell viability assay.

Name the reported IC50 value associated with the molecule NC(=O)c1ccc(N(C(N)=O)c2c(F)cccc2F)nc1-c1ccc(F)cc1F
> 2 µM

Next record, please: O=C(NCCCNc1nc(Nc2cccc(NC(=O)N3CCCC3)c2)ncc1I)c1cccs1
4.3 µM

Next record, please: CC1(C)CCC(c2ccc(Cl)cc2)=C(CN2CCN(c3ccc(C(=O)NS(=O)(=O)c4ccc(N[C@H](CCN5CCOCC5)CSc5ccccc5)c(S(=O)(=O)C(F)(F)F)c4)cc3)CC2)C1
> 2 µM

Next record, please: Cc1ccc(NC(=O)c2ccc(CN3CCN(C)CC3)cc2)cc1Nc1nccc(-c2cccnc2)n1
> 2 µM

====

Tested on: TALL-1
procedure_text: cells
Assay type: functional, cell-based, Homo sapiens
test_settings: Homo sapiens, TALL-1
Description: SANGER: Inhibition of human TALL-1 cell growth in a cell viability assay.
pIC50: −log10 of the molar value.
Provide the reported pIC50 of each item.

Entry OC[C@H](Cc1ccccc1)Nc1nc(Oc2ccc3c(c2)CCC3)nc2c1ncn2Cc1ccc(-c2ccccc2)cc1 , system TALL-1: what pIC50 was measured?
< 4.99

Next record, please: Nc1ccccc1NC(=O)c1ccc(CNC(=O)OCc2cccnc2)cc1
< 5.30

Next record, please: COc1cc(N2CCC(N3CCN(C)CC3)CC2)ccc1Nc1ncc(Cl)c(Nc2ccccc2S(=O)(=O)C(C)C)n1
< 5.70

Next record, please: CC(C)C[C@H](NC(=O)[C@H](Cc1ccccc1)NC(=O)c1cnccn1)B(O)O
< 7.70

Next record, please: COc1ccc(-c2cc3nccn3c(Nc3ncccc3C(N)=O)n2)cc1OC
< 5.10

Next record, please: CCCCCCCCCCCC1=C(O)C(=O)C=C(O)C1=O
< 4.49

====

System: DMS-153
procedure_text: cells
Format: functional, cell-based, Homo sapiens
test_settings: Homo sapiens, DMS-153
Description: SANGER: Inhibition of human DMS-153 cell growth in a cell viability assay.
pIC50: −log10 of the molar value. Where a SMILES comes first, the peptide text is derived from it. The star is where a group is joined. Cbz = O=C(OCc1ccccc1)*
Provide the reported pIC50 of each item.

Name the reported pIC50 value associated with the molecule Cc1cc(N2CCOCC2)cc2[nH]c(-c3c(NC[C@@H](O)c4cccc(Cl)c4)cc[nH]c3=O)nc12
< 5.29

Next record, please: CC(C)C[C@@H](C=O)NC(=O)[C@H](CC(C)C)NC(=O)[C@H](CC(C)C)NC(=O)OCc1ccccc1 [MG-132] (Cbz-Leu-Leu-Leu-aldehyde)
< 6.00

Next record, please: C/C(=C\c1csc(C)n1)[C@@H]1C[C@@H]2O[C@]2(C)CCC[C@H](C)[C@H](O)[C@@H](C)C(=O)C(C)(C)[C@@H](O)CC(=O)O1
7.53

Next record, please: Cc1ccc(NC(=O)c2ccc(CN3CCN(C)CC3)cc2)cc1Nc1nccc(-c2cccnc2)n1
< 5.70

====

Tested on: 697
procedure_text: cells
Assay type: functional, cell-based, Homo sapiens
test_settings: Homo sapiens
Description: SANGER: Inhibition of human 697 cell growth in a cell viability assay.
Provide the reported log10(IC50) of each item.
The common logarithm of IC50 in nM is what is listed.

Name the reported log10(IC50) value associated with the compound CS(=O)(=O)N1CCN(Cc2cc3nc(-c4cccc5[nH]ncc45)nc(N4CCOCC4)c3s2)CC1 [PICTILISIB]
2.92

Next record, please: Cc1cc(N2CCOCC2)cc2[nH]c(-c3c(NC[C@@H](O)c4cccc(Cl)c4)cc[nH]c3=O)nc12
3.05

Next record, please: Cc1ccc(C(=O)Nc2ccc(CN3CCN(C)CC3)c(C(F)(F)F)c2)cc1C#Cc1cnc2cccnn12 [PONATINIB]
2.28

Next record, please: COc1cc(N2CCC(N3CCN(C)CC3)CC2)ccc1Nc1ncc(Cl)c(Nc2ccccc2S(=O)(=O)C(C)C)n1 [TAE-684]
2.64

Next record, please: CC(C)C[C@H](NC(=O)[C@H](Cc1ccccc1)NC(=O)c1cnccn1)B(O)O [BORTEZOMIB]
0.30

====

System: VMRC-RCZ
procedure_text: cells
Type: functional, cell-based
test_settings: Homo sapiens
Description: SANGER: Inhibition of human VMRC-RCZ cell growth in a cell viability assay.
measured_attribute: IC50

Name the reported IC50 value associated with the compound NC(=O)Nc1cc(-c2cccc(F)c2)sc1C(=O)N[C@H]1CCCNC1
0.906 µM

Next record, please: COC(=O)[C@H](CCSC)NC(=O)c1ccc(NC[C@@H](N)CS)cc1-c1ccccc1
> 1.02 µM

Next record, please: CC1=C(/C=C/C(C)=C/C=C/C(C)=C/C(=O)O)C(C)(C)CCC1
> 10 µM

Next record, please: Cc1ccc(-n2nc(C(C)(C)C)cc2NC(=O)Nc2ccc(OCCN3CCOCC3)c3ccccc23)cc1
> 10 µM

Next record, please: OC[C@H](Cc1ccccc1)Nc1nc(Oc2ccc3c(c2)CCC3)nc2c1ncn2Cc1ccc(-c2ccccc2)cc1
> 10.2 µM

Next record, please: CS(=O)(=O)N1CCN(Cc2cc3nc(-c4cccc5[nH]ncc45)nc(N4CCOCC4)c3s2)CC1
> 4 µM

Next record, please: NC1(c2ccc(-c3nc4ccn5c(=O)[nH]nc5c4cc3-c3ccccc3)cc2)CCC1
> 4 µM

Next record, please: O=S(=O)(O)c1ccc2cc(/N=N/c3cc(S(=O)(=O)O)c4cccnc4c3O)ccc2c1
> 16 µM
